assayed system: Acetylcholinesterase (Homo sapiens, UniProt P22303)
Sequence (P22303 whole entry): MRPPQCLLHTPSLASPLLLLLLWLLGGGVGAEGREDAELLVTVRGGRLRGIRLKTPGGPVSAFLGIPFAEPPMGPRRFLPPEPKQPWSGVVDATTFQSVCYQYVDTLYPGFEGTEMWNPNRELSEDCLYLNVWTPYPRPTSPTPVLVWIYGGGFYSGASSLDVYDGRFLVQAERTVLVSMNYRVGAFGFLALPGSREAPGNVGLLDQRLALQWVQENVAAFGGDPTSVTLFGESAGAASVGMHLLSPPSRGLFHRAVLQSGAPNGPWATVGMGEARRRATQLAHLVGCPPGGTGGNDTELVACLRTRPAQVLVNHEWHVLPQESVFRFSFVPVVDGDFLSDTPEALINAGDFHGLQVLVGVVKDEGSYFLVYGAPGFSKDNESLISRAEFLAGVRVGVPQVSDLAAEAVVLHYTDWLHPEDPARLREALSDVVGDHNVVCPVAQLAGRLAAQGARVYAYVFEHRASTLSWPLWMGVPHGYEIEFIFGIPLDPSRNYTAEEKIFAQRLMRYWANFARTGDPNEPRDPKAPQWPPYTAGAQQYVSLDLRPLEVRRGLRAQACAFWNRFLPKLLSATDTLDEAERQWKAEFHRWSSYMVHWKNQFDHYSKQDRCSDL
protocol: Inhibition of AChE (unknown origin) by Ellman's method
recorded metric: IC50 (nM)

1) COc1cc2c(Nc3ccc(C(=O)/C=C/c4nc(C)c(C)nc4C)cc3)ncnc2c(OC)c1OC = 100

====

assayed system: Amyloid-beta precursor protein (Homo sapiens)
Sequence (P05067 whole entry): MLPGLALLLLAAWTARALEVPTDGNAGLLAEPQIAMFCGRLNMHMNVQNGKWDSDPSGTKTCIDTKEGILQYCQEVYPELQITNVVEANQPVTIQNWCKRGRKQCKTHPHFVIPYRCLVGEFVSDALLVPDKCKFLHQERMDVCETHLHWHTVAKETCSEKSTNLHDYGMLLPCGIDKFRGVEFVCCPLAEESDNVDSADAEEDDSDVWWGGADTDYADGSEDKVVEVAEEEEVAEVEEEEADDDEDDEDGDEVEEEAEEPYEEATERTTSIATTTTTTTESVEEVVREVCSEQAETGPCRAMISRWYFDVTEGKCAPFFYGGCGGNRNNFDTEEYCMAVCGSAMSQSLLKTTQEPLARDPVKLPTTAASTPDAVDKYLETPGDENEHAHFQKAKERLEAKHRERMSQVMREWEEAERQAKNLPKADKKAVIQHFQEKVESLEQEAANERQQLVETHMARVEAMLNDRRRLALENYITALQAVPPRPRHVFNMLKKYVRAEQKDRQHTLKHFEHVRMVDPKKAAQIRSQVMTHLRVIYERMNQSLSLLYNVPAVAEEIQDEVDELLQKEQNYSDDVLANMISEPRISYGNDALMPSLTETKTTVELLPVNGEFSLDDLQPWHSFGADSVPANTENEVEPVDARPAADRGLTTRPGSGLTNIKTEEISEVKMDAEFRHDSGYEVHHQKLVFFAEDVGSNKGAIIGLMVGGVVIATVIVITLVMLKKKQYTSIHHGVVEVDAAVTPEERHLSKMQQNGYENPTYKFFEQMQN
protocol: Inhibition of amyloid beta 1 to 40 aggregation in human SH-SY5Y cells
Format: cell-based
recorded metric: IC50

1. COc1cc(/C=C/c2nc3cc(Cl)ccc3c(=O)[nH]2)ccc1-n1cnc(C)c1 = > 10 µM

====

Each entry below carries its reported pIC50.
assayed system: Acetylcholinesterase (Electrophorus electricus, UniProt O42275)
Sequence (O42275 whole entry): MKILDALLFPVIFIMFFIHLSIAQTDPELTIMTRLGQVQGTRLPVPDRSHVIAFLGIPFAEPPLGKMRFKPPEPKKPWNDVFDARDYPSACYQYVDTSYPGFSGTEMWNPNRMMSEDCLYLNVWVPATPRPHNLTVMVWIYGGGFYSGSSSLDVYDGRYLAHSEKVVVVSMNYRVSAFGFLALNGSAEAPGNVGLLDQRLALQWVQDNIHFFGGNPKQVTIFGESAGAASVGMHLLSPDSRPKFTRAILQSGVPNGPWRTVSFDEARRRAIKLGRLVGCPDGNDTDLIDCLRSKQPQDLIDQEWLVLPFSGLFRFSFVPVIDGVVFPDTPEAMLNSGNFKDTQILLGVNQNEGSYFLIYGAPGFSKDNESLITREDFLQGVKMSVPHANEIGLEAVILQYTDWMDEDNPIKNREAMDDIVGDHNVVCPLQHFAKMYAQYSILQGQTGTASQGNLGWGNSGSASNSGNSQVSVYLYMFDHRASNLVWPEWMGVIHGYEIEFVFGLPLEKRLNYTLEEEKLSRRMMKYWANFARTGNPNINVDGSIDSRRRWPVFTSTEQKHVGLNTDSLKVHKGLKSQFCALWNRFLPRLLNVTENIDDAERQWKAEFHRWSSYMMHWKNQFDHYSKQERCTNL
protocol: Inhibition of electric eel AChE using acetylthiocholine incubated for 30 mins by measuring hydrolysis of substrate by Ellman's method
pIC50: −log10 of the molar value.
recorded metric: pIC50

1) CC1(c2ccc(Cl)cc2)Nc2cc(Cl)ccc2-c2ccnn21 (configuration not stated) = 3.45
2) CN1C(=O)C2(Nc3cc(Cl)ccc3-c3ccnn32)c2cc(Cl)ccc21 (configuration not stated) = 4.05

====

protocol: Antioxidant activity assessed as radical scavenging incubated for 90 mins in dark DPPH assay
Format: functional
recorded metric: IC50 (µM)

1. Cn1c(N/N=C/c2ccc(O)cc2O)nc2ccccc2c1=O = 8.4

====

assayed system: Cholinesterase (Equus caballus, UniProt P81908)
Sequence (P81908 whole entry): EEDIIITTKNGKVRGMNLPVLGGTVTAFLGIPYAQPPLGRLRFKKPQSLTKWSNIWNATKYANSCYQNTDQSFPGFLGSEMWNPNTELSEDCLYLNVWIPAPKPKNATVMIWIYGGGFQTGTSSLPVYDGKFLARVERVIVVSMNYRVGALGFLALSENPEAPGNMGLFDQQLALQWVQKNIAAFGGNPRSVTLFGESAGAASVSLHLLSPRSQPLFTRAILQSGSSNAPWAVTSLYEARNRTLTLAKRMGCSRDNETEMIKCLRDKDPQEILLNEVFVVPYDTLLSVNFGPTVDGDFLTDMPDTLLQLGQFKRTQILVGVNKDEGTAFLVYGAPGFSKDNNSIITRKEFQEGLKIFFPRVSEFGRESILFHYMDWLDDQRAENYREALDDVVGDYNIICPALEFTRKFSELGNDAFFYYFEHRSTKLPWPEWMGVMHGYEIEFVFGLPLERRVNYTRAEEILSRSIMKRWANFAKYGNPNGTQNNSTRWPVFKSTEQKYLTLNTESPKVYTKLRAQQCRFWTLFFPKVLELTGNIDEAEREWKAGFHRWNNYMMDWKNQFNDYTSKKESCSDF
protocol: Inhibition of equine serum BuChE
recorded metric: log10 IC50 (log10 of the value in nM)

1) c1cc2c(cc1OCCCN1CCCCC1)CN1CCCCC1=N2 = 0.82
2) c1ccc2c(c1)CCN1Cc3cc(OCCCN4CCCCC4)ccc3N=C21 = 2.98
3) c1cc2c(cc1OCCCN1CCCCC1)CN1CCCCCC1=N2 = 1.10
4) c1ccc2c(c1)CCCN1Cc3cc(OCCCN4CCCCC4)ccc3N=C21 = 3.43
5) c1cc2c(cc1OCCCN1CCCCC1)CN1CCCC1=N2 = 2.09
6) c1ccc2c(c1)CN1Cc3cc(OCCCN4CCCCC4)ccc3N=C21 = 3.62

====

The entries below are paired with their reported pIC50.
assayed system: Cholinesterase (Equus caballus, UniProt P81908)
protocol: Inhibition of equine serum BuChE incubated measured after 25 mins by spectrophotometric analysis
Format: cell-free
pIC50: −log10 of the molar value.
recorded metric: pIC50

1) CC(C)CC1(CC(C)C)NC(=O)c2ccccc2N1Cc1ccccc1 = 5.61
2) CC1(c2ccc(Cl)cc2)NC(=O)c2cc(Br)cc(Br)c2N1 (stereo not drawn) = 5.43
3) CC(C)CC1(CC(C)C)NC(=O)c2ccccc2N1Cc1ccc(Cl)cc1 = 5.81
